target: mUSP18 (Mus musculus); construct: (46-368); His-tag (N); made in house; assay: High-throughput screening, ISG15ct-RhoMP, single dose 1.25 µM; type: biochemical, murine; conditions: mUSP18 %inhibition; carboxylic acid (CA) building block alone; read-out: %inh CA only
measurement-type: inhibition at 1.25 µM (%)

molecule: O=C(O)c1ccn(-c2ncc(C(F)(F)F)cc2Cl)n1
recorded-number: 4.28
//
molecule: Cc1nn(-c2ccccn2)c(C)c1CC(=O)O
recorded-number: 3.49

[I] Cn1cc(-c2ocnc2C(=O)O)cn1
[II] O=C(O)C1CN(C(=O)OCc2ccccc2)CCO1 (stereo not drawn)
Hi there, can you help? I need to know whether I or II has lower measured inhibition at 1.25 µM. Which one? Tell me its label. II
(II: -2.04%, I: 12.6%)

[a] O=C(O)c1ccnn1C1CCC1
[b] CC(=O)N1CCN(S(=O)(=O)c2cccc(C(=O)O)c2)CC1
Hi there, can you help? I need to know whether a or b has lower measured inhibition at 1.25 µM. Which one? Tell me its label. b
(b: -5%, a: 3.75%)

[1] Cc1cc(C)cc(N(CCC(=O)O)S(=O)(=O)c2ccc(Cl)cc2)c1
[2] Cc1cc(-c2nc(C)sc2CC(=O)O)c(C)s1
Which shows the larger inhibition at 1.25 µM value: 1 or 2 ? Which one? Tell me its label. 2
(2: 3.02%, 1: 1.09%)

[I] O=C(O)C1=NNC(=O)C1c1ccccc1 (stereo not drawn)
[II] O=C(O)c1cccc(S(=O)(=O)NCC2CCCO2)c1 (stereo not drawn)
Which shows the larger inhibition at 1.25 µM value: I or II ? Which one? Tell me its label. II

[a] O=C(O)c1nc(OCC2CC2)ccc1Cl
[b] O=C(O)c1nc(N2CCCC2)ncc1Cl
Which shows the larger inhibition at 1.25 µM value: a or b ? Which one? Tell me its label. b

[I] Cc1nc(-c2c(C)c(C)nn(C)c2=O)sc1C(=O)O
[II] O=C(O)C1CC(=O)N(OCc2ccccc2)C1 (stereo not drawn)
Which shows the larger inhibition at 1.25 µM value: I or II ? Which one? Tell me its label. I

[a] O=C(O)c1ccccc1OCc1cccs1
[b] Cc1onc(-c2ccccn2)c1C(=O)O
[c] Cc1nc(-c2cnn(C)c2)sc1C(=O)O
[d] O=C(O)c1nn(-c2ccccc2)c(=O)[nH]c1=O
[e] O=C(O)c1cc(-c2ccco2)on1
Ascending by inhibition at 1.25 µM, please. Lab note: record answer as labels in requested order. a, d, e, c, b
(a: -5.56%, d: -3.61%, e: 2.35%, c: 6.54%, b: 12.1%)

[I] CN(CC(=O)N1CCCC(C(=O)O)C1)c1ccc(Cl)cn1 (stereo not drawn)
[II] Cc1ncc(C(=O)O)s1
Which shows the larger inhibition at 1.25 µM value: I or II ? Which one? Tell me its label. I

====

Target: mUSP18 (Mus musculus)
Construct: (46-368); His-tag (N); made in house
Sequence (Q9WTV6 46-368): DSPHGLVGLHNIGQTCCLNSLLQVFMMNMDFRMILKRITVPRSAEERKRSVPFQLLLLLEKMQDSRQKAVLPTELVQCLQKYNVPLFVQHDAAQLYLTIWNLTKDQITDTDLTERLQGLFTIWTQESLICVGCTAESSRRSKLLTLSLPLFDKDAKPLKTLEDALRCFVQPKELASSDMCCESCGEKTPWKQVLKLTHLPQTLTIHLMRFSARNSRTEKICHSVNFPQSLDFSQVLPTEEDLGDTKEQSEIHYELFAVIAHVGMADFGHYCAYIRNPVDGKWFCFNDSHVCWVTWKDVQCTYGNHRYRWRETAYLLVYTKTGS
Assay: High-throughput screening, ISG15ct-RhoMP, single dose 1.25 µM
Assay type: biochemical, murine
Settings: mUSP18 %inhibition; carboxylic acid (CA) with coupling reagents DIC/HOBT; read-out: %inh CA + DIC/HOBT
measurement-type: inhibition at 1.25 µM (%)

compound: O=C(O)CC1CCN(c2ccc(Cl)nn2)CC1
value-units: %
recorded-number: -4.65

compound: O=C(O)[1C@@H]1C[1C@H]1c1ccco1
value-units: %
recorded-number: 4.8

compound: Cc1nc(-c2ccsc2)ccc1C(=O)O
value-units: %
recorded-number: -10.4

compound: O=C(O)c1ccc(Oc2cccc(Cl)c2)cn1
value-units: %
recorded-number: 14.8

compound: O=C(O)c1ccc(-n2ccnc2)nn1
value-units: %
recorded-number: 5.42

[a] O=C(O)CN1CCOCC1
[b] Cc1ccc(S(=O)(=O)NCCc2ccc(F)cc2)cc1C(=O)O
Hi there, can you help? I need to know whether a or b has lower measured inhibition at 1.25 µM. Which one? Tell me its label. a

[1] O=C(O)c1nc(OCC2CC2)ccc1Cl
[2] O=C(O)CC1=NN(c2ncc(C(F)(F)F)cc2Cl)C(=O)C1
Which shows the larger inhibition at 1.25 µM value: 1 or 2 ? Which one? Tell me its label. 2
(2: 4.27%, 1: -0.53%)

[1] O=C(O)c1ccc(S(=O)(=O)Nc2cccc(Cl)c2F)o1
[2] Cn1c(=O)c2c(ncn2CC(=O)O)n(C)c1=O
Which shows the larger inhibition at 1.25 µM value: 1 or 2 ? Which one? Tell me its label. 1

[A] O=C(O)CN1C(=O)c2ccccc2C1=O
[B] Cc1c(Br)cccc1C(=O)O
[C] O=C(O)c1cnn(-c2ccc(C(F)(F)F)cc2)c1
Ascending by inhibition at 1.25 µM, please. Lab note: record answer as labels in requested order. A, B, C
(A: -15.8%, B: -10.1%, C: 1.41%)

[1] CCn1cc(S(=O)(=O)N2CCC(C(=O)O)CC2)cn1
[2] O=C(O)c1ccc(OCc2ccncc2)cc1
[3] O=C(O)c1nc(C2CC2)ncc1Br
[4] COc1cc(C(=O)O)ccc1OCc1c(C)noc1C
Sort by inhibition at 1.25 µM, descending. Lab note: record answer as labels in requested order. 2, 1, 4, 3
(2: 11.9%, 1: 5.98%, 4: 3.45%, 3: -0.51%)

[A] Cc1nc(-c2cccnc2)sc1C(=O)O
[B] CC(C)n1nccc1[1C@@H]1OCC[1C@H]1C(=O)O
[C] O=C(O)c1nc(N2CCCC2)ncc1Cl
Ascending by inhibition at 1.25 µM, please. Lab note: record answer as labels in requested order. B, A, C
(B: -9.4%, A: 0.87%, C: 14.2%)

[1] CC1CC1C(=O)N1CCCCC1C(=O)O (centres unmarked)
[2] O=C(O)c1cccc(-c2cnco2)c1
Hi there, can you help? I need to know whether 1 or 2 has lower measured inhibition at 1.25 µM. Which one? Tell me its label. 1

[I] Cc1cc(C)n(-c2ccc(Cl)c(C(=O)O)n2)n1
[II] O=C(O)C1CCN(c2ccc(=O)[nH]n2)CC1
Hi there, can you help? I need to know whether I or II has lower measured inhibition at 1.25 µM. Which one? Tell me its label. I

====

Molecular target: UCHL3 (Homo sapiens, UniProt P15374)
Sequence (P15374 1-230): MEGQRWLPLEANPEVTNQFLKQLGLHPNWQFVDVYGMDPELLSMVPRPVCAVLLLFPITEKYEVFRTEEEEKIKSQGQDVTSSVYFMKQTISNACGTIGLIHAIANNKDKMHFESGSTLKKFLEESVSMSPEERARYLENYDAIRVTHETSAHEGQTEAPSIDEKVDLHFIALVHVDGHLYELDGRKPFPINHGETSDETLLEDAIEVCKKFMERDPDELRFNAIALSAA
measurement-type: IC50

Some molecules with recorded IC50:
molecule-smiles: N#CN1CC[C@@H](NC(=O)c2ccc(F)c(F)c2)C1
experimental-target: UCHL3 (Homo sapiens, UniProt P15374)
IC50: > 200 µM
--
molecule-smiles: N#CN1CC[C@@H](NC(=O)c2ccc(N3CCCC3)cc2F)C1
experimental-target: UCHL3 (Homo sapiens, UniProt P15374)
IC50: > 200 µM

Kindly review the next molecule as well.
IC50 value, target or system UCHL3 (Homo sapiens, UniProt P15374), for N#CN1CC[C@H](C(=O)Nc2ncc(N3CCOCC3)s2)C1 : > 200 µM

====

target: mUSP18 (Mus musculus, UniProt Q9WTV6); construct: (46-368); His-tag (N); made in house; assay: High-throughput screening, ISG15ct-RhoMP, single dose 1.25 µM; format: biochemical, murine; conditions: mUSP18 %inhibition; carboxylic acid (CA) building block alone; read-out: %inh CA only
measurement-type: inhibition at 1.25 µM (%)

Some compounds with recorded inhibition at 1.25 µM:
compound: O=C(O)Cc1ccncc1 [CA017]
experimental-target: mUSP18 (Mus musculus, UniProt Q9WTV6)
inhibition at 1.25 µM / %: -7.18

compound: O=C(O)c1nc(N2CCOCC2)ncc1Cl [CA458]
experimental-target: mUSP18 (Mus musculus, UniProt Q9WTV6)
inhibition at 1.25 µM / %: 2.77

compound: Cc1cccc(C(=O)N2CCCCC2C(=O)O)n1 (stereo not shown) [CA152]
experimental-target: mUSP18 (Mus musculus, UniProt Q9WTV6)
inhibition at 1.25 µM / %: 2.22

[I] O=C(O)CC1C(=O)Nc2ccccc21 (stereo not shown) [CA078]
[II] O=C(O)c1ccc(Oc2cccc(Cl)c2Cl)nn1 [CA144]
Which shows the larger inhibition at 1.25 µM value: I or II ? Which one? Tell me its label. II

These data points were gathered from paper PMC12668310.
